The values you see were collected from PubChem BioAssay AID1963845.

Test system: 429239-143-T-J1-PDC complex spheroid viability;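 note: luminescence signal used as surrogate measure of viable cells; spheroids exposed to compounds for seven days before readout; 100% = DMSO vehicle control viability as luminescence relative to vehicle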
assay_procedure: Anticancer human tumor 429239-143-T-J1-PDC patient-derived small cell lung carcinoma cell line growth inhibition [POLQ]
particulars: second compound 0.0316 µM; first compound 0.316 µM; active compounds read low
Method: Multicellular complex tumor spheroid response to Polymerase (POL) inhibitors (novobiocin, ART-558, RP6685) in combination with a variety of drugs and investigational agents in selected tumor cell lines The POL inhibitors (novobiocin, ART-558, and RP6685) were evaluated both individually and in combination with standard of care and investigational anticancer small molecules within a complex spheroid model of solid tumors. . […]

compound	system_tested	unit_text	viability, T/C
CC(C)n1c(=O)n(C)c2cnc3cc(F)c(-c4ccc(OCCCN5CCCCC5)nc4)cc3c21 + Cc1cccc(N(C)C(=O)C2C(O)CCN2c2nc(C)cc(C(F)(F)F)c2C#N)c1	429239-143-T-J1-PDC complex spheroid viability	%	92.2
COc1cc2cc(C(=O)CCC(=O)O)sc2cc1OC + COC1C(OC(N)=O)C(O)C(Oc2ccc3c(O)c(NC(=O)c4ccc(O)c(CC=C(C)C)c4)c(=O)oc3c2C)OC1(C)C	429239-143-T-J1-PDC complex spheroid viability	%	112
C=CCn1c(=O)c2cnc(Nc3ccc(N4CCN(C)CC4)cc3)nc2n1-c1cccc(C(C)(C)O)n1 + COC1C(OC(N)=O)C(O)C(Oc2ccc3c(O)c(NC(=O)c4ccc(O)c(CC=C(C)C)c4)c(=O)oc3c2C)OC1(C)C	429239-143-T-J1-PDC complex spheroid viability	%	85.7
O=C(Nc1ccc(O)c(NS(=O)(=O)c2ccc(F)cc2)c1)c1ccc(-c2ccccc2)cc1 + COC1C(OC(N)=O)C(O)C(Oc2ccc3c(O)c(NC(=O)c4ccc(O)c(CC=C(C)C)c4)c(=O)oc3c2C)OC1(C)C	429239-143-T-J1-PDC complex spheroid viability	%	108
CC1COCCN1c1cc(C2(O)CC3CCC(C2)O3)c2cnn(-c3ccn[nH]3)c2n1 (stereo unspecified) + Nc1ccc(C#CCN(C(=O)Cc2ncc(C(F)(F)F)cc2C(F)(F)F)c2ccc(F)cc2)nn1	429239-143-T-J1-PDC complex spheroid viability	%	48.2
CC1COCCN1c1cc(-c2ccnn2C)c2ccnc(-c3ccn[nH]3)c2n1 (stereo unspecified) + COC1C(OC(N)=O)C(O)C(Oc2ccc3c(O)c(NC(=O)c4ccc(O)c(CC=C(C)C)c4)c(=O)oc3c2C)OC1(C)C	429239-143-T-J1-PDC complex spheroid viability	%	27.5
CC1COCCN1c1cc(C2(S(C)(=N)=O)CC2)nc(-c2ccnc3[nH]ccc23)n1 (stereo unspecified) + COC1C(OC(N)=O)C(O)C(Oc2ccc3c(O)c(NC(=O)c4ccc(O)c(CC=C(C)C)c4)c(=O)oc3c2C)OC1(C)C	429239-143-T-J1-PDC complex spheroid viability	%	89.4
O=C(Nc1ccc(O)c(NS(=O)(=O)c2ccc(F)cc2)c1)c1ccc(-c2ccccc2)cc1 + Cc1cccc(N(C)C(=O)C2C(O)CCN2c2nc(C)cc(C(F)(F)F)c2C#N)c1	429239-143-T-J1-PDC complex spheroid viability	%	91.9
CCc1c2c(nc3ccc(O)cc13)-c1cc3c(c(=O)n1C2)COC(=O)[C@]3(O)CC + COC1C(OC(N)=O)C(O)C(Oc2ccc3c(O)c(NC(=O)c4ccc(O)c(CC=C(C)C)c4)c(=O)oc3c2C)OC1(C)C	429239-143-T-J1-PDC complex spheroid viability	%	17.5
CNCc1ccc(-c2[nH]c3cc(F)cc4c3c2CCNC4=O)cc1 + Nc1ccc(C#CCN(C(=O)Cc2ncc(C(F)(F)F)cc2C(F)(F)F)c2ccc(F)cc2)nn1	429239-143-T-J1-PDC complex spheroid viability	%	97.7
CC1COCCN1c1cc(C2(O)CC3CCC(C2)O3)c2cnn(-c3ccn[nH]3)c2n1 (stereo unspecified) + Cc1cccc(N(C)C(=O)C2C(O)CCN2c2nc(C)cc(C(F)(F)F)c2C#N)c1	429239-143-T-J1-PDC complex spheroid viability	%	17.6
